FYI, the data here is from PubChem BioAssay (NCI).

# Tested on: RXF 393 renal
# Method Notes: NCI-60 one-dose screen, 48 h (100 = growth as untreated, 0 = no growth, -100 = all killed)
# Reported Conditions: 100 µM
About 83,000 compounds went through this panel and 20% of them were active in at least one assay; those are over-represented in the sample as a whole.
The entries below are paired with their reported growth.

# Item Smiles, Units, growth
records = [
    ("COc1ccc(C(=O)/C=C/c2ccc(OCc3cccc(C(F)(F)F)c3)c(OC)c2)cc1OC", "%", -13),
    ("CC(=O)/C=C/c1ccc(N(C)Cc2ccc(C(C)(C)C)cc2)cc1", "%", -90.6),
    ("CC(=O)/C=C/c1ccc(N(CCO)Cc2ccc(C(C)(C)C)cc2)cc1", "%", -75.9),
    ("O=C(/C=C/c1cccc(Oc2ccc(Cl)cc2)c1)c1ccccc1", "%", -68.2),
]
